Data credit: ChEMBL document CHEMBL3832761

// reported MIC per item
tested on: Mycobacterium tuberculosis; test: AntiMycobacterium tuberculosis activity 2-week Alamar Blue 7H9/ADC/Tw MIC (uM); format: functional; conditions: 336 h
TEST READOUT: MIC (µM)

| MOLECULE | TARGET SYSTEM | RESULT COMPARATOR | ASSAY VALUE |
| --- | --- | --- | --- |
| Cc1cnc(N2CCN[C@@H](Cc3ccccc3)C2)nc1Oc1ccc(-n2ccnc2)cc1 | Mycobacterium tuberculosis | = | 19 |
| Cc1ccc2nc(C)c(-c3ccn(Cc4ccccc4)n3)n2c1 | Mycobacterium tuberculosis | = | 19 |
| COc1cc(Br)cc2cc(C(=O)Nc3cccc(C(F)(F)F)c3)c(=O)oc12 | Mycobacterium tuberculosis | > | 50 |
| Cc1cc(O)nc(-n2nc(C)cc2C)n1 | Mycobacterium tuberculosis | = | 50 |
| O=C(NCCc1c[nH]c2ccccc12)c1cc2ccccc2oc1=O | Mycobacterium tuberculosis | = | 0.78 |
| O=C(C1CCN(c2nnc(-n3cccc3)s2)CC1)N1CCC(Cc2ccccc2)CC1 | Mycobacterium tuberculosis | = | 0.07 |
| CC(=O)NC[C@H]1CN(c2ccc(N3CCSCC3)c(F)c2)C(=O)O1 [SUTEZOLID] | Mycobacterium tuberculosis | = | 0.78 |
| CCC(C)NC(=O)c1ccc(NC(=O)C2(c3ccccc3)CCCC2)cc1 (stereo unspecified) | Mycobacterium tuberculosis | > | 50 |
| COc1cccc(OCC(=O)c2ccc(Br)cc2)c1 | Mycobacterium tuberculosis | = | 25 |
| COc1cccc(-c2nc3c(N4CCCC4)cccc3n2CC2CCCN2)n1 (stereo unspecified) | Mycobacterium tuberculosis | = | 6.25 |
| Brc1cncc(-c2cc(NCCCn3ccnc3)nc(-c3ccccc3)n2)c1 | Mycobacterium tuberculosis | = | 12.5 |

###

// reported pIC50 per item
test system: Plasmodium falciparum; assay: Antimalarial activity: Asexual Blood Stage Plasmodium falciparum Dd2 IC50 (uM); format: functional, organism-based
pIC50: −log10 of the molar value.

| COMPOUND | RESULT COMPARATOR | pIC50 |
| --- | --- | --- |
| O=C(Nc1cccc(Cl)c1)c1cnc(N2CCN(c3ccncc3)CC2)c(Cl)c1 | = | 5.88 |
| c1ccc(-c2cc(N3CCCCC3)c3ccccc3n2)nc1 | < | 5.70 |
| Cc1ccc(NC(=O)c2cc(S(=O)(=O)NC(C)(C)C)ccc2C)nc1 | = | 5.60 |
| COc1ccc(CCN2CCC(NCc3cccc(N(C)C)c3)CC2)cc1 | = | 5.52 |
| O=S(=O)(c1ccc(Cl)cc1)N1CCN(C(=S)NCc2ccco2)CC1 | = | 6.12 |
| CC(C)c1ncc(-c2ccncc2)c([C@H]2CC[C@H](CNC(=O)c3cccnc3)CC2)n1 | = | 6.00 |
| Cc1cc(C(=O)Nc2ccc(-c3ccccc3)cc2)no1 | = | 5.85 |
| O=C(NC1CC1)c1ccc(N2CCC(Cc3ccccc3)CC2)nc1 | = | 5.78 |
| Cc1ccc2c(c1C)NC(=O)C21NN=C(c2ccccc2)S1 (stereo unspecified) | = | 5.67 |
| O=C(Nc1cnc2ccccc2c1)c1cccc(-n2cnnn2)c1 | = | 5.73 |
| OCCc1ccc(Nc2nccc(-c3nnc4ccccn34)n2)cc1 | = | 5.79 |
